B1: CPEB3 Ribozyme (parent)
chain: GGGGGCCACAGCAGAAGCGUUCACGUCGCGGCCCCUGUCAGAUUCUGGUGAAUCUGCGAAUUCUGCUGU

# Variants of: B1
# protocolNotes: self-cleavage, relative activity (ratio to wild type); higher = more cleavage; co-transcriptional
measuredProperty: self-cleavage

Noted for A51U A60C : its self-cleavage reads 0.378

Noted for C34G C54G : its self-cleavage reads 0.343

Noted for C35G C45G : its self-cleavage reads 0.452

Noted for C24G G68A : its self-cleavage reads 0.725

Noted for U53G C54G : its self-cleavage reads 0.673

Noted for U21C U36G : its self-cleavage reads 0.286

Noted for G50U A52C : its self-cleavage reads 0.979

Noted for C34G G37U : its self-cleavage reads 0.171

Noted for G41U A52C : its self-cleavage reads 0.431

Noted for A23U U69C : its self-cleavage reads 1.07

Noted for G56C U64A : its self-cleavage reads 0.504

Noted for C34G U49C : its self-cleavage reads 0.689

Noted for G2A G65U : its self-cleavage reads 0.067

Noted for G19A C54U : its self-cleavage reads 0.134

Noted for G2A C35U : its self-cleavage reads 0.542

Noted for C18U G19C : its self-cleavage reads 0.168

Noted for U20C U64A : its self-cleavage reads 0.167

Noted for U20G G41C : its self-cleavage reads 0.0984

Noted for G1A C39U : its self-cleavage reads 0.0531

Noted for A15U A23G : its self-cleavage reads 0.658

Noted for G19A G56A : its self-cleavage reads 0.104

Noted for A23G G41A : its self-cleavage reads 0.676

Where do these numbers come from? They come from the RNAGym collection of RNA variant scans (doi:10.7554/elife.80360).
